Molecular target: human GLP-1 receptor (human, UniProt P43220)
Assay: cell-based or functional assay
No end group written: not given here.
experimentalReadout: GLP-1 Receptor Activation (relative to GLP-1(7-37)OH) (relative potency)
All answers are understood in relative potency, so give the number only.

HVEGTFTSDVSSYLEGQAAKEFIEWLVKGRG [Val^8-Glu^30-GLP-1(7-37)OH] :: 0.29

Query string: Please give measured GLP-1 Receptor Activation (relative to GLP-1(7-37)OH) of the following entry: HVEGTFTSDVSSYLEEQAAKEFIAWLVKGRG [Val^8-Glu^22-GLP-1(7-37)OH]
Result string: 1.29

Query string: Please give measured GLP-1 Receptor Activation (relative to GLP-1(7-37)OH) of the following entry: HVEGTFTSDVSSYLEHQAAKEFIAWLVKGRG [Val^8-His^22-GLP-1(7-37)OH]
Result string: 0.14

Query string: Please give measured GLP-1 Receptor Activation (relative to GLP-1(7-37)OH) of the following entry: HVEGTFTSDVSSYLEEQAAKEFIAWLVKGR-NH2 [Val^8-Glu^22-GLP-1(7-36)NH2]
Result string: 1

Query string: Please give measured GLP-1 Receptor Activation (relative to GLP-1(7-37)OH) of the following entry: HVEGTYTSDVSSYLEGQAAKEFIAWLVKGRG [Val^8-Tyr^12-GLP-1(7-37)OH]
Result string: 0.81

Query string: Please give measured GLP-1 Receptor Activation (relative to GLP-1(7-37)OH) of the following entry: HVEGTFTSDVSSYLEGQAAKEFIAWLGKGRG [Val^8-Gly^33-GLP-1(7-37)OH]
Result string: 0.01
